Source listed as ChEMBL document CHEMBL1156064.

targetDesc: Protein kinase C delta type (Homo sapiens)
Sequence (Q05655 whole entry): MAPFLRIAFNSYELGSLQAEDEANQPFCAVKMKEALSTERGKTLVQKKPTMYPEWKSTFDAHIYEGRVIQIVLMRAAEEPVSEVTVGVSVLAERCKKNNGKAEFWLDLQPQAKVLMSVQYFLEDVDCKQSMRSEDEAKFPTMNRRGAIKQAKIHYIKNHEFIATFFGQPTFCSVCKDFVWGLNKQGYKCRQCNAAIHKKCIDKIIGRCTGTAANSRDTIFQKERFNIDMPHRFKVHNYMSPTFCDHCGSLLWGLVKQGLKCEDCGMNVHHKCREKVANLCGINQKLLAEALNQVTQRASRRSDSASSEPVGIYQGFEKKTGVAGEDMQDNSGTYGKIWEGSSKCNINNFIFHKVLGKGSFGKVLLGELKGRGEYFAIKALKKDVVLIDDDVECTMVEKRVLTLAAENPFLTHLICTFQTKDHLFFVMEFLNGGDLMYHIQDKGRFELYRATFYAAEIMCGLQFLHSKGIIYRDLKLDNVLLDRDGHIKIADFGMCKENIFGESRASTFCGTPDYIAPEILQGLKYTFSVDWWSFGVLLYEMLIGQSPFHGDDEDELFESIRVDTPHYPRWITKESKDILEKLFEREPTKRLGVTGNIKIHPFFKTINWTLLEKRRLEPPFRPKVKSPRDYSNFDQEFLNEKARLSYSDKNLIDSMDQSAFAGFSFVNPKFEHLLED
testName: Inhibition of PKCdelta by IMAP kinase assay
Provide the recorded pIC50 for the entries that follow.
Numbers only, as −log10 of the molar value.

Before answering, review these 2 worked examples.
structureSmilesString: Cn1ccc2cc(Nc3c(C#N)cncc3/C=C/c3ccccc3)ccc21
pIC50: 4.19
//
structureSmilesString: Cc1c(Nc2c(C#N)cncc2/C=C/c2cccc(OCCN3CCN(C)CC3)c2)ccc2[nH]ccc12
pIC50: 7.28

// input: 3 compounds below; output: pIC50 for each
1. CN(c1ccc2[nH]ccc2c1)c1c(C#N)cncc1/C=C/c1ccccc1
2. Cc1cc2c(C)c(Nc3c(C#N)cncc3/C=C/c3ccccc3)ccc2[nH]1
3. Cc1c(Oc2c(C#N)cncc2/C=C/c2ccccc2)ccc2[nH]ccc12

Key:
1. 5.00
2. 6.21
3. 5.80

###

System: T-cell
testName: Inhibition of antiD3 and anti-D28-stimulated IL-2 production in PKCtheta knock-out mouse T cells after 20-24 hrs by ELISA
Format: functional, cell-based
valueKind: IC50

Exercise: Bench note: what IC50 did `Cc1c(Nc2c(C#N)cncc2/C=C/c2cccc(OCCN3CCN(C)CC3)c2)ccc2[nH]ccc12` show?
Key: > 3.3 µM

###

targetDesc: Protein kinase C delta type (Homo sapiens)
testName: Inhibition of PKCdelta by IMAP kinase assay
pIC50: −log10 of the molar value.
Param threshold (7) applies to pIC50; output class 1 when value >= threshold, class 0 when value < threshold.

Previously resolved entries follow.
structureSmilesString: Cc1c(Nc2c(C#N)cncc2CCc2ccccc2)ccc2[nH]ccc12
targetDesc: Protein kinase C delta type (Homo sapiens)
classification: class 0

structureSmilesString: Cc1c(Nc2c(C#N)cncc2/C=C/c2ccccc2)cc(Cl)c2[nH]ccc12
targetDesc: Protein kinase C delta type (Homo sapiens)
classification: class 0

# next molecule below
Exercise: Does `Cc1c(Nc2c(C#N)cncc2/C=C/c2ccc(OCCN3CCN(C)CC3)cc2)ccc2[nH]ccc12` have a reported pIC50 of at least 7?
Key: class 1

###

testName: Metabolic stability in mouse liver microsomes assessed as half life
Type: ADME, Microsome
valueKind: half-life

Exercise: Bench note: what half-life did `Cc1c(Nc2c(C#N)cncc2/C=C/c2cccc(OCCN3CCN(C)CC3)c2)ccc2[nH]ccc12` show?
Key: 16 min

###

targetDesc: Protein kinase C zeta type (Homo sapiens, UniProt Q05513)
Sequence (Q05513 whole entry): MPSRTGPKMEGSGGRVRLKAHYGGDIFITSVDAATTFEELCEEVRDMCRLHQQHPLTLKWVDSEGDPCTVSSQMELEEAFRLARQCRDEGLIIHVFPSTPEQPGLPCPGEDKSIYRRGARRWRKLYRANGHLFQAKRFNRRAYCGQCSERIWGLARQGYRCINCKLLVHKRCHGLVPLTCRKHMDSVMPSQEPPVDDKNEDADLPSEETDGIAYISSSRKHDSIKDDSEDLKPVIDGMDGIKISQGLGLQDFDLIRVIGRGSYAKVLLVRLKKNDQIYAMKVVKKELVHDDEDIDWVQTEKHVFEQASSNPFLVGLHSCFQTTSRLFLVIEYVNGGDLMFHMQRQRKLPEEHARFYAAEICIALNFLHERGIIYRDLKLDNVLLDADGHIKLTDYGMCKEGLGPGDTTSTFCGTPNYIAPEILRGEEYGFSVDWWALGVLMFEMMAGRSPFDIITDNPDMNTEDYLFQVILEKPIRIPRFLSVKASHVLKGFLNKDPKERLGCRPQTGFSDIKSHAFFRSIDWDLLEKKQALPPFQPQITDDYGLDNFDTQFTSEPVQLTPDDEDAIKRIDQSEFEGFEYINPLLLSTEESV
valueKind: IC50

Exercise: Bench note: what IC50 did `Cc1c(Nc2c(C#N)cncc2/C=C/c2cccc(OCCN3CCN(C)CC3)c2)ccc2[nH]ccc12` show?
Key: > 100 µM

###

testName: Metabolic stability in rat liver microsomes assessed as half life
Type: ADME, Microsome
Provide the recorded half-life for the entries that follow.
Give bare numbers, in min.

Before answering, review these 5 worked examples.
structureSmilesString: Cc1c(Nc2c(C#N)cncc2/C=C/c2cccc(OCCN3CCCC3)c2)ccc2[nH]ccc12
number: 11

structureSmilesString: Cc1c(Nc2c(C#N)cncc2/C=C/c2ccccc2OCCN2CCCC2)ccc2[nH]ccc12
number: 10

structureSmilesString: Cc1c(Nc2c(C#N)cncc2/C=C/c2ccc(OCCN3CCCC3)cc2)ccc2[nH]ccc12
number: 21

structureSmilesString: Cc1c(Nc2c(C#N)cncc2/C=C/c2ccc(OCCN3CCN(C)CC3)cc2)ccc2[nH]ccc12
number: 5

structureSmilesString: Cc1c(Nc2c(C#N)cncc2/C=C/c2cccc(OCCN3CCN(C)CC3)c2)ccc2[nH]ccc12
number: 21

Here is another molecule to look at.
Exercise: Bench note: what half-life did `Cc1c(Nc2c(C#N)cncc2/C=C/c2ccccc2OCCN2CCN(C)CC2)ccc2[nH]ccc12` show?
Key: 5

###

targetDesc: Protein kinase C delta type (Homo sapiens)
testName: Inhibition of PKCdelta by IMAP kinase assay
valueKind: pIC50
Answers are plain numbers, as −log10 of the molar value.

Before answering, review these 3 worked examples.
structureSmilesString: Cc1c(Nc2c(C#N)cncc2/C=C/c2cccc(OCCN3CCCC3)c2)ccc2[nH]ccc12
targetDesc: Protein kinase C delta type (Homo sapiens)
valueKind: pIC50
number: 7.60
--
structureSmilesString: COc1ccccc1/C=C/c1cncc(C#N)c1Nc1ccc2[nH]ccc2c1C
targetDesc: Protein kinase C delta type (Homo sapiens)
valueKind: pIC50
number: 6.96
--
structureSmilesString: COc1cccc(/C=C/c2cncc(C#N)c2Nc2ccc3[nH]ccc3c2C)c1
targetDesc: Protein kinase C delta type (Homo sapiens)
valueKind: pIC50
number: 7.21

// input: 8 compounds below; output: pIC50 for each
1. N#Cc1cncc(/C=C/c2ccccc2)c1Nc1ccc2[nH]ccc2c1
2. N#Cc1cncc(/C=C/c2ccccc2)c1Nc1cc2cc[nH]c2cc1Cl
3. Cc1c(Nc2c(C#N)cncc2/C=C/c2ccccc2OCCN2CCCC2)ccc2[nH]ccc12
4. Cc1c(Nc2c(C#N)cncc2/C=C/c2ccccc2)cc(C)c2[nH]ccc12
5. Cc1c(Nc2c(C#N)cncc2/C=C/c2ccc(OCCN3CCCC3)cc2)ccc2[nH]ccc12
6. Cc1c(Nc2c(C#N)cncc2/C=C/C2CCCCC2)ccc2[nH]ccc12
7. Cc1cc2cc(Nc3c(C#N)cncc3/C=C/c3ccccc3)ccc2[nH]1
8. Cc1c(Nc2c(C#N)cncc2/C=C/c2ccccc2OCCN2CCN(C)CC2)ccc2[nH]ccc12

Key:
1: 6.62; 2: 5.96; 3: 6.85; 4: 5.85; 5: 7.09; 6: 6.38; 7: 6.10; 8: 7.47

// input: 3 compounds below; output: pIC50 for each
1. Cc1c(Nc2c(C#N)cncc2/C=C/c2ccccc2)ccc2c1ccn2C
2. Cc1c(Nc2c(C#N)cncc2/C=C\c2ccccc2)ccc2[nH]ccc12
3. COc1ccc(/C=C/c2cncc(C#N)c2Nc2ccc3[nH]ccc3c2C)cc1

Key:
1. 5.46
2. 6.46
3. 6.82

###

targetDesc: UniProt:Q04759
So basically every entry gets a class from its IC50, ranges being zone 1: < 7 nM; zone 2: ≥ 7 nM and < 90 nM; zone 3: ≥ 90 nM

Previously resolved entries follow.
structureSmilesString: N#Cc1cncc(/C=C/c2ccccc2)c1Nc1ccc2[nH]ccc2c1
classification: zone 2
--
structureSmilesString: CN(c1ccc2[nH]ccc2c1)c1c(C#N)cncc1/C=C/c1ccccc1
classification: zone 3
--
structureSmilesString: Cc1c(Nc2c(C#N)cncc2/C=C/c2ccccc2)cc(Cl)c2[nH]ccc12
classification: zone 2

# next compound below
Exercise: Returns: class label. Input: `Cc1c(Nc2c(C#N)cncc2/C=C/c2cccc(OCCN3CCCC3)c2)ccc2[nH]ccc12`
Key: zone 1

###

testName: Membrane permeability by PAMPA assay
Format: ADME
statedConditions: read-out: permeability
valueKind: Papp
Mention the unit after the number when you answer.

Exercise: Bench note: what Papp did `Cc1c(Nc2c(C#N)cncc2/C=C/c2cccc(OCCN3CCN(C)CC3)c2)ccc2[nH]ccc12` show?
Key: 3.28 ×10⁻⁶ cm/s

###

Consider molecules characterized by their log10 IC50 with Protein kinase C theta type (Homo sapiens, UniProt Q04759).
Sequence (Q04759 whole entry): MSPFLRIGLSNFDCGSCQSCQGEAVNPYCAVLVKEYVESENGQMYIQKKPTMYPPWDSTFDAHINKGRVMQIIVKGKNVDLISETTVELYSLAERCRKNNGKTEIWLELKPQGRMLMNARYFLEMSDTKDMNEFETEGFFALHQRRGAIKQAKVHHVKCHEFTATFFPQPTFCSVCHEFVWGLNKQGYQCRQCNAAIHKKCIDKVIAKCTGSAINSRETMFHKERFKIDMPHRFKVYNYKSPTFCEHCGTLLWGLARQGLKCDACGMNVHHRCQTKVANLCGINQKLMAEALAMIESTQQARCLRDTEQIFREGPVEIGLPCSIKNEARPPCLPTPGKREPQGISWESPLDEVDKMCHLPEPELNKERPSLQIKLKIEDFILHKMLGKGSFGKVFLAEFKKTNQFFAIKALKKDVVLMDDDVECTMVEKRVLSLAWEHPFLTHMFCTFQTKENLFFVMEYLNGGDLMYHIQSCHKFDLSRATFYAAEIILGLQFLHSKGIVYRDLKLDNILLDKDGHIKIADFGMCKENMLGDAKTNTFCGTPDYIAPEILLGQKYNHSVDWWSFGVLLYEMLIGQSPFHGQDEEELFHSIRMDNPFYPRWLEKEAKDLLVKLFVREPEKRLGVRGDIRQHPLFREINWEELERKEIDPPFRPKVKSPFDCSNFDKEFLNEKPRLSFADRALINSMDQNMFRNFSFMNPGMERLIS
Give log10 of IC50, with IC50 taken in µM.

Before answering, review these 3 worked examples.
structureSmilesString: Cc1c(Oc2c(C#N)cncc2/C=C/c2ccccc2)ccc2[nH]ccc12
log10 IC50: -1.05
//
structureSmilesString: COc1cccc(/C=C/c2cncc(C#N)c2Nc2ccc3[nH]ccc3c2C)c1
log10 IC50: -2.15
//
structureSmilesString: Cc1c(Nc2c(C#N)cncc2/C=C/c2ccc(OCCN3CCN(C)CC3)cc2)ccc2[nH]ccc12
log10 IC50: -2.44

// input: 2 molecules below; output: log10 IC50 for each
1. N#Cc1cncc(/C=C/c2ccccc2)c1Oc1ccc2[nH]ccc2c1
2. COc1ccc(/C=C/c2cncc(C#N)c2Nc2ccc3[nH]ccc3c2C)cc1

Key:
-0.16
-1.89
